MEASURED TARGET: mouse TRPM3a2 (mTRPM3) ion channel (Mus musculus, UniProt J9SQF3)
Construct: expressed in transfected cells; host or cells: flip-in HEK293
Sequence (J9SQF3 1-1709 isoform J9SQF3-12): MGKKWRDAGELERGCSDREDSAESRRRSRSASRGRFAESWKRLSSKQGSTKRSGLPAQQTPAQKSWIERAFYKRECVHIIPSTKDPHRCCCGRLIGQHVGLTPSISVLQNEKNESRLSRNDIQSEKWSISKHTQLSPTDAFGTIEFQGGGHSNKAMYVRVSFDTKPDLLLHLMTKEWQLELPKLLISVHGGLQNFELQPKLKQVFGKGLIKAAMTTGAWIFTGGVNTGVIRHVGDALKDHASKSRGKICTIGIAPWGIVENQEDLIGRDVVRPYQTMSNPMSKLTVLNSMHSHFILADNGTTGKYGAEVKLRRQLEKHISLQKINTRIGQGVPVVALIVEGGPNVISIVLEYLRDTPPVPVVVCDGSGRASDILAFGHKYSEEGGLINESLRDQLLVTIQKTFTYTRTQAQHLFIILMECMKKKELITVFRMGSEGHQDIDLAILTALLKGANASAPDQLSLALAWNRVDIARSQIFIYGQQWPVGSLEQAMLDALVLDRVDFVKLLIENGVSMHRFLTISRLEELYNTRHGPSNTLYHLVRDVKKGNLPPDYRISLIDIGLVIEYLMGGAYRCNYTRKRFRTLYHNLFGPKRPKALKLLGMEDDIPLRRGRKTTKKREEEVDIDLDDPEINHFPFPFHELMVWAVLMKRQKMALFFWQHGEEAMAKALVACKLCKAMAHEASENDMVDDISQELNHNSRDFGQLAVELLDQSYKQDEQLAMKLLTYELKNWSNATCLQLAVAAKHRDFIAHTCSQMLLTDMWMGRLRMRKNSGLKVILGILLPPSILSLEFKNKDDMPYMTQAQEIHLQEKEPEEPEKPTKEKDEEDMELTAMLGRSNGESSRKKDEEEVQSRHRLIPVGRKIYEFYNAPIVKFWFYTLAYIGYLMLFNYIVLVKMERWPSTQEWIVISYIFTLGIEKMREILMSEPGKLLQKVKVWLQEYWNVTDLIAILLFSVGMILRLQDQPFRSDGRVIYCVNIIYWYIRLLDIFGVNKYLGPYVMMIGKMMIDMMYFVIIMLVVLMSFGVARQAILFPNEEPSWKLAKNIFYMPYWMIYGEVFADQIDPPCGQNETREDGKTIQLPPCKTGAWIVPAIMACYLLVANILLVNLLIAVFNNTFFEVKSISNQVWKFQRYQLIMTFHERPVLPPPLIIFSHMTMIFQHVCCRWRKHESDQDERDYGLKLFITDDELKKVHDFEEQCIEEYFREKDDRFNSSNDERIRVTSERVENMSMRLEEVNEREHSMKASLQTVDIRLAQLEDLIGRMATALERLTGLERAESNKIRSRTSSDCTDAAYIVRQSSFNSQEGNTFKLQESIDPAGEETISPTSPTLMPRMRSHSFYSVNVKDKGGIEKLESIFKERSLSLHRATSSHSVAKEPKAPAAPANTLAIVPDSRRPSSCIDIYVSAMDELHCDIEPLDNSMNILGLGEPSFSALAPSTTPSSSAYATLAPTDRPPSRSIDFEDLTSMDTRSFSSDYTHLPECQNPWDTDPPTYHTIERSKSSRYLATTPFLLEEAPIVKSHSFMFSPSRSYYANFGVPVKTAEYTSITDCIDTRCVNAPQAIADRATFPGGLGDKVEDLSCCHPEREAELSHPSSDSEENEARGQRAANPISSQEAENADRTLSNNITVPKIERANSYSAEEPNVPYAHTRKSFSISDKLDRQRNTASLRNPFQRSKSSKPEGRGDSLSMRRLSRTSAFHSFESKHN
TEST DESCRIPTION: TRPM3 ion channel driven Ca2+ uptake, Fluo-4 AM assay (PS-stimulated, overexpressing flip-in HEK293 cells)
Assay type: cell-based
TEST CONTEXT: PS (50 μM) stimulated, cpds. 600-666
pIC50: −log10 of the molar value.
MEASUREMENT KIND: pIC50

# COMPOUND, EXPERIMENTAL VALUE
rows = [
    ("Cc1ccc(COc2ccc3oc(C)c(C(=O)NC4(CO)CCOCC4)c3c2)cn1", "4.70 to 6.00"),
    ("CNC(=O)C(CO)NC(=O)c1c(C)oc2ccc(OCc3scnc3C)cc12 (single isomer, unassigned)", "≥ 6.00"),
]

Which value of pIC50 has been reported for CNC(=O)C(CO)NC(=O)c1c(C)oc2ccc(OCc3ccccn3)cc12 (single isomer, unassigned) [601 - En 1] in the records?
≥ 6.00

Which value of pIC50 has been reported for `Cc1oc2ccc(OCc3ncccn3)cc2c1C(=O)NC1(CO)CCOCC1` in the records?
4.70 to 6.00

Which value of pIC50 has been reported for `Cc1coc(COc2ccc3oc(C)c(C(=O)NC4(CO)CCOCC4)c3c2)n1` in the records?
4.70 to 6.00

Which value of pIC50 has been reported for `Cc1oc2ccc(OCc3cccc(=O)n3C)cc2c1C(=O)NC1(CO)CCOCC1` in the records?
4.70 to 6.00

Which value of pIC50 has been reported for `Cc1cnc(COc2ccc3oc(C)c(C(=O)NC4(CO)CCOCC4)c3c2)cn1` in the records?
4.70 to 6.00

Which value of pIC50 has been reported for `Cc1nccc(COc2ccc3oc(C)c(C(=O)NC4(CO)CCOCC4)c3c2)n1` in the records?
4.70 to 6.00
